Test: Metabolic stability in Homo sapiens (human) hepatocytes assessed as compound remaining after 2 hr
Type: ADME, cell-based, Hepatocyte
Details: read-out: Stability
PROPERTY MEASURED: remaining at 2 h (%)
Please state the figure in %; there is no need to write the unit.

Request: Entry COc1ccc2c(n1)C1(CO2)C(=O)N(Cc2ccc(C(F)(F)F)o2)c2ccccc21 (stereo unspecified) has what remaining at 2 h?
Result: 29

---

Test: Oral bioavailability in Sprague-Dawley Rattus norvegicus (rat) at 10 mg/kg
Format: ADME, organism-based
Settings: in vivo
PROPERTY MEASURED: bioavailability

Request: Entry COc1ccc2c(n1)C1(CO2)C(=O)N(Cc2ccc(C(F)(F)F)o2)c2ccccc21 (stereo unspecified) has what bioavailability?
Result: 3.2%
